method-notes: HILIC, Waters Atlantis Premier BEH Z-HILIC, 100 × 2.1 mm, 1.7 µm, 40 °C, 0.15 mL/min, estimated dead time 1.5 min; A: water + 20 mM ammonium carbonate + 5 µM medronic acid; B: 10% water + 90% acetonitrile + 2 mM ammonium carbonate + 0.5 µM medronic acid; gradient (min/%B) 0/100 18/55 18.1/20 21.5/20 22/100 23.5/100 25.5/100
run-parameters: stereoisomer not certain
# label = Satisfied if LC retention time >= 10 min else Not satisfied

Hi team, for CC(O)C(=O)O (centres undefined) , is the recorded LC retention time at or above 10 min?
Not satisfied

Hi team, for O=C(O)CCCCC1SCC2NC(=O)NC21 (centres undefined) , is the recorded LC retention time at or above 10 min?
Not satisfied

Hi team, for Nc1ncnc2c1ncn2C1OC(COP(=O)(O)OP(=O)(O)O)C(O)C1O (centres undefined) , is the recorded LC retention time at or above 10 min?
Satisfied

Hi team, for O=C(O)C(CO)OP(=O)(O)O (centres undefined) , is the recorded LC retention time at or above 10 min?
Satisfied

Hi team, for Nc1ncnc2c1ncn2C1OC(CO)C(O)C1O (centres undefined) , is the recorded LC retention time at or above 10 min?
Not satisfied

Hi team, for NC(=O)c1ccc[n+](C2OC(COP(=O)(O)OP(=O)(O)OCC3OC(n4cnc5c(N)ncnc54)C(OP(=O)(O)O)C3O)C(O)C2O)c1 (centres undefined) , is the recorded LC retention time at or above 10 min?
Satisfied

Hi team, for O=C(O)CCC(=O)O , is the recorded LC retention time at or above 10 min?
Not satisfied

Hi team, for O=P(O)(O)OCC1OC(O)(COP(=O)(O)O)C(O)C1O (centres undefined) [Fructose-1,6-bisphosphate] , is the recorded LC retention time at or above 10 min?
Satisfied

Hi team, for O=P(O)(O)OCC1OC(O)C(O)C(O)C1O (centres undefined) [Glucose-6-phosphate] , is the recorded LC retention time at or above 10 min?
Satisfied

---

Exercise: state measured LC retention time for each of the molecules provided.
method-notes: HILIC, Waters Atlantis Premier BEH Z-HILIC, 100 × 2.1 mm, 1.7 µm, 40 °C, 0.15 mL/min, estimated dead time 1.5 min; A: water + 20 mM ammonium carbonate + 5 µM medronic acid; B: 10% water + 90% acetonitrile + 2 mM ammonium carbonate + 0.5 µM medronic acid; gradient (min/%B) 0/100 18/55 18.1/20 21.5/20 22/100 23.5/100 25.5/100
run-parameters: stereoisomer not certain
Field note: include the unit after the figure.

Assign LC retention time to the following record: CC(C)(COP(=O)(O)OP(=O)(O)OCC1OC(n2cnc3c(N)ncnc32)C(O)C1OP(=O)(O)O)C(O)C(=O)NCCC(=O)NCCS (stereo not drawn)
11.9 min

Assign LC retention time to the following record: C[N+](C)(C)CC(O)CC(=O)[O-] (stereo not drawn)
9.95 min

Assign LC retention time to the following record: NC(=O)C1=CN(C2OC(COP(=O)(O)OP(=O)(O)OCC3OC(n4cnc5c(N)ncnc54)C(OP(=O)(O)O)C3O)C(O)C2O)C=CC1 (stereo not drawn)
14.7 min

Assign LC retention time to the following record: Nc1nc2c(ncn2C2OC(COP(=O)(O)OP(=O)(O)OP(=O)(O)O)C(O)C2O)c(=O)[nH]1 (stereo not drawn)
17.1 min

Assign LC retention time to the following record: Nc1ncnc2c1ncn2C1OC(COP(=O)(O)O)C(O)C1O (stereo not drawn)
8.82 min

Assign LC retention time to the following record: NC(CCC(=O)O)C(=O)O (stereo not drawn)
9.29 min

Assign LC retention time to the following record: O=C(O)CCC(O)C(=O)O (stereo not drawn) [2-hydroxy glutaric acid]
9.58 min

Assign LC retention time to the following record: O=C(O)CC(C(=O)O)C(O)C(=O)O (stereo not drawn)
14.5 min
